Source listed as patent US8871934B2.

Assignment: determine reported IC50 for the given compounds.
Biological target: human PDHK2 (hPDHK2) (Homo sapiens (Human), UniProt Q15119)
Assay: Inhibitory action of PDHK activity in vitro (kinase reaction, residual PDH activity measured)
Type: biochemical
Conditions: PDHK inhibitory activity, class symbol of IC50

>  <COMPOUND>
OC1(C(F)(F)F)c2ccccc2-c2ccc(OC3CCC3)cc21 (stereo not shown)

>  <TARGET OR SYSTEM>
human PDHK2 (hPDHK2) (Homo sapiens (Human), UniProt Q15119)

>  <IC50>
> 1000 nM

$$$$
>  <COMPOUND>
O=C(c1ccc2c(c1)C(O)(C(F)(F)F)c1ccccc1-2)N1CC(C(=O)N2CCCC2)C1 (stereo not shown)

>  <TARGET OR SYSTEM>
human PDHK2 (hPDHK2) (Homo sapiens (Human), UniProt Q15119)

>  <IC50>
100 to 1000 nM

$$$$
>  <COMPOUND>
O=C(O)C1CCCN1C(=O)c1ccc2c(c1)C(O)(C(F)(F)F)c1ccccc1-2 (stereo not shown)

>  <TARGET OR SYSTEM>
human PDHK2 (hPDHK2) (Homo sapiens (Human), UniProt Q15119)

>  <IC50>
> 1000 nM

$$$$

Okay, now this compound:
For record CCOC(=O)c1cccc2c1-c1ccccc1C2(O)C(F)(F)F (stereo not shown) the listed IC50 is 100 to 1000 nM
